In this section, each of the compounds is paired with its reported DC50.
- target: Androgen Receptor (Homo sapiens, UniProt P10275)
- Construct: endogenous in cells; host or cells: VCaP cells
- protocolSummary: Androgen Receptor ELISA assay (PathScan AR ELISA) in VCaP cells: AR degradation, Dmax and DC50
- Type: cell-based
- measurementConditions: read-out: VCaP DC50; VCaP cells; Table 36

Here is how some compounds turned out for DC50.
Cc1ncsc1-c1ccc([C@H](C)NC(=O)[C@@H]2C[C@@H](O)CN2C(=O)[C@@H](NC(=O)CN2CCOCCN(CCOc3ccc(N4C(=S)N(c5ccc(C#N)c(C(F)(F)F)c5)C(=O)C4(C)C)cc3)CCOCC2)C(C)(C)C)cc1 [Example 643]: > 501 nM
Cc1cc(C(C(=O)N2C[C@H](O)C[C@H]2C(=O)NCc2ccc(Cl)cc2OCCOCCOCCOc2ccc(N3C(=S)N(c4ccc(C#N)c(C(F)(F)F)c4)C(=O)C3(C)C)cc2)C(C)C)on1 (some centres unmarked) [Example 735]: > 501 nM
Cc1nccn1-c1ccc([C@H](C)NC(=O)[C@@H]2C[C@@H](O)CN2C(=O)[C@H](C(C)C)n2cc(OCCCOCCCCCOc3ccc(N4C(=S)N(c5ccc(C#N)c(C(F)(F)F)c5)C(=O)C4(C)C)cc3)cn2)cc1 [Example 611]: > 501 nM
Cc1ncsc1-c1ccc([C@H](CO)NC(=O)[C@@H]2C[C@@H](O)CN2C(=O)[C@@H](NC(=O)COCCN2C3CCC2CN(c2ccc(C(=O)N[C@H]4C(C)(C)[C@H](Oc5ccc(C#N)c(Cl)c5)C4(C)C)cn2)C3)C(C)(C)C)cc1 [Example 821]: < 50 nM
Cc1ncsc1-c1ccc([C@H](C)NC(=O)[C@@H]2C[C@@H](O)CN2C(=O)[C@@H](NC(=O)CN2CCN(CC3(CNc4ccc(C(=O)N[C@H]5C(C)(C)[C@H](Oc6ccc(C#N)c(C(F)(F)F)c6)C5(C)C)cc4)COC3)CC2)C(C)(C)C)cc1 [Example 686]: < 50 nM

-- ask Print Androgen Receptor (Homo sapiens, UniProt P10275) DC50 for Cc1ncsc1-c1ccc([C@H](C)NC(=O)[C@@H]2C[C@@H]3CN2C(=O)[C@H](C(C)(C)C)NC(=O)COCCCOCCC(CCOc2ccc(N4C(=S)N(c5ccc(C#N)c(C(F)(F)F)c5)C(=O)C4(C)C)cc2)OC(=O)CCc2cn(nn2)CCCCCC(=O)O3)cc1 (some centres unmarked) [Example 621] .
-- reply > 501 nM

-- ask Name the value of DC50 reported for Cc1ncsc1-c1ccc([C@H](C)NC(=O)[C@@H]2C[C@@H](O)CN2C(=O)C(C(C)C)n2cnc(-c3ccnc(N4CC[C@H](Oc5ccc(N6C(=S)N(c7ccc(C#N)c(C(F)(F)F)c7)C(=O)C6(C)C)cc5)C4)c3)c2)cc1 (some centres unmarked) [Example 617] when tested on Androgen Receptor (Homo sapiens, UniProt P10275).
-- reply > 501 nM

-- ask Write DC50 of Cc1ncsc1-c1ccc([C@H](C)NC(=O)[C@@H]2C[C@@H](O)CN2C(=O)C(NC(=O)COCCCOCC[C@@H](O)CCOc2ccc(N3C(=S)N(c4ccc(C#N)c(C(F)(F)F)c4)C(=O)C3(C)C)cc2)C(C)(C)C)cc1 (some centres unmarked) [Example 613] ; system used: Androgen Receptor (Homo sapiens, UniProt P10275)
-- reply > 501 nM

* * *

- target: Androgen Receptor (Homo sapiens, UniProt P10275+P40337, T878A)
- Construct: Compounds have been evaluated in this assay in LNCaP and/or VCaP cells utilizing similar protocols; endogenous in cells; host or cells: LNCaP cells
- protocolSummary: Androgen Receptor ELISA assay (PathScan AR ELISA) in LNCaP cells: AR degradation, Dmax and DC50
- Format: cell-based
- measurementConditions: concentration that caused 50% Androgen Receptor degradation
Reported DC50 values for a set of compounds

Cc1ncsc1-c1ccc(CNC(=O)[C@@H]2C[C@@H](O)CN2C(=O)[C@@H](NC(=O)CCCCOc2ccc(CCCOc3ccc(N4C(=S)N(c5ccc(C#N)c(C(F)(F)F)c5)C(=O)C4(C)C)cc3)cc2)C(C)(C)C)cc1 [Example 259]: 0.051 to 0.5 µM
Cc1ncsc1-c1ccc(CNC(=O)[C@@H]2C[C@@H](O)CN2C(=O)[C@@H](NC(=O)COCCCOCCCCOc2ccc(N3C(=S)N(c4cnc(C#N)c(C(F)(F)F)c4)C(=O)C3(C)C)cc2)C(C)(C)C)cc1 [Example 30]: < 0.05 µM
Cc1ncsc1-c1ccc(CNC(=O)[C@@H]2C[C@@H](O)CN2C(=O)[C@@H](NC(=O)CCCOCCOCCNC(=O)c2ccc(N3C(=S)N(c4ccc(C#N)c(C(F)(F)F)c4)C(=O)C3(C)C)cc2F)C(C)(C)C)cc1 [Example 245]: > 0.501 µM

Kindly review the next compound as well.
-- ask Report DC50 for Cc1ncsc1-c1ccc(CNC(=O)[C@@H]2C[C@@H](O)CN2C(=O)[C@@H](NC(=O)COCCCCCOCCCOc2ccc(N3C(=S)N(c4ccc(C#N)c(C(F)(F)F)c4)C(=O)C3(C)C)cc2)C(C)(C)C)cc1 [Example 295]
-- reply < 0.05 µM

* * *

- target: Androgen Receptor (Homo sapiens, UniProt P10275)
- Construct: endogenous in cells; host or cells: VCaP cells
- Sequence (P10275 1-920): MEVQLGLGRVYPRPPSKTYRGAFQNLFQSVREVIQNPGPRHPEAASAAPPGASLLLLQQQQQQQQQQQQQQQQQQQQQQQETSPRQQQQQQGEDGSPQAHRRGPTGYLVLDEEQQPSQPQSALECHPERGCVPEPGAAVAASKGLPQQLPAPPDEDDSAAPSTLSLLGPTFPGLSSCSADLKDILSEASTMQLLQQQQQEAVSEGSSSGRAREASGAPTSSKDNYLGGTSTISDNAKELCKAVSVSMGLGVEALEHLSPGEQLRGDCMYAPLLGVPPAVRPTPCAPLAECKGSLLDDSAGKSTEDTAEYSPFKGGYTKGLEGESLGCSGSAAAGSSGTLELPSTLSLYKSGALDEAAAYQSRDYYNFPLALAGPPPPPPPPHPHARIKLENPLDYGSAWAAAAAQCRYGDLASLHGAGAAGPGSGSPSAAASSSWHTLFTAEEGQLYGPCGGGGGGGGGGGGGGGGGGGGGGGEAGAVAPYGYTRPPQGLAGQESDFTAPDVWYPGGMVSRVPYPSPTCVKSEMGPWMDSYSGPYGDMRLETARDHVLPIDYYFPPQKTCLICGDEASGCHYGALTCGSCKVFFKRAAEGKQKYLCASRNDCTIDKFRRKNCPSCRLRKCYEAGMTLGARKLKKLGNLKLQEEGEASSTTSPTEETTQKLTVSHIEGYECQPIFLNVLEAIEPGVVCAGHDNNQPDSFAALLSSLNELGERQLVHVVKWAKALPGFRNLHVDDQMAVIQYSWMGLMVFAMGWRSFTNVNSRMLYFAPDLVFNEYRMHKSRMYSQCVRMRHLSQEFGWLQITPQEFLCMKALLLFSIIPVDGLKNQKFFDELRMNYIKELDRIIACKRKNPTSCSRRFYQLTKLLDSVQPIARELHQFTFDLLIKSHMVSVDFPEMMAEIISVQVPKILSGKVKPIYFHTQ
- protocolSummary: Androgen Receptor ELISA assay (PathScan AR ELISA) in VCaP cells: AR degradation, Dmax and DC50
- Assay type: cell-based
- measurementConditions: VCaP cells; Table 36; read-out: VCaP DC50
Quick reference: DC50 of the listed items.

-- ask Please look at this compound and report its DC50: Cc1ncsc1-c1ccc([C@H](C)NC(=O)[C@@H]2C[C@@H](O)CN2C(=O)[C@@H](NC(=O)CCCc2ccc(C(=O)N[C@H]3C(C)(C)[C@H](Oc4ccc(C#N)c(Cl)c4)C3(C)C)cc2)C(C)(C)C)cc1 [Example 747]
-- reply > 501 nM

-- ask Quote DC50 reported for Cc1ncsc1-c1ccc([C@H](C)NC(=O)[C@@H]2C[C@@H](O)CN2C(=O)[C@H](c2cc(N3CCN(CCCc4ccc(C(=O)N[C@H]5C(C)(C)[C@H](Oc6ccc(C#N)c(Cl)c6)C5(C)C)cc4)CC3)no2)C(C)C)cc1 [Example 796] please.
-- reply > 501 nM

-- ask State its DC50 for this compound: Cc1ncsc1-c1ccc([C@H](C)NC(=O)[C@@H]2C[C@@H](O)CN2C(=O)C(NC(=O)CO[C@@H]2CCCC[C@H]2N2CCN(CCOc3ccc(C(=O)N[C@H]4C(C)(C)[C@H](Oc5ccc(C#N)c(Cl)c5)C4(C)C)cc3)CC2)C(C)(C)C)cc1 (stereo partly shown) [Example 792]
-- reply > 501 nM

-- ask Write down DC50 measured for item Cc1ncsc1-c1ccc([C@H](C)NC(=O)[C@@H]2C[C@@H](O)CN2C(=O)[C@@H](NC(=O)CN2CCN(CCCc3ccc(C(=O)N[C@H]4C(C)(C)[C@H](Oc5ccc(C#N)c(C(F)(F)F)c5)C4(C)C)cc3)CC2)C(C)(C)C)cc1 [Example 665]
-- reply < 50 nM
